Reference source for all entries: ChEMBL document CHEMBL1153435

System: Human immunodeficiency virus 1
Test: Antiviral activity against protease inhibitor resistant HIV1 isolates
Format: functional, organism-based
MEASUREMENT_LABEL: IC50 (nM)
Numbers only, in nM.

Problem: Recall and state the measured IC50 for COc1ccc(S(=O)(=O)N(CC(C)C)C[C@@H](O)[C@H](Cc2ccccc2)NC(=O)O[C@H]2CO[C@H]3OCC[C@H]32)cc1 .
Solution: 0.5

----------
Parameter 'readout' = IC50; parameter 'system' = Protease (Human immunodeficiency virus 1, UniProt Q9YQ12).
Sequence (Q9YQ12 whole entry): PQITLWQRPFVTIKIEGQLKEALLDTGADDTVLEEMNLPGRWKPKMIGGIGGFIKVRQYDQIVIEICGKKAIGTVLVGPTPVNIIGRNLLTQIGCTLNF
One number for each entry, in nM.

Examples with answers:
CC(C)(C)NC(=O)[C@@H]1C[C@@H]2CCCC[C@@H]2CN1C[C@@H](O)[C@H](Cc1ccccc1)NC(=O)O[C@H]1CCOC1    160
CC(C)(C)NC(=O)[C@@H]1C[C@@H]2CCCC[C@@H]2CN1C[C@@H](O)[C@H](Cc1ccccc1)NC(=O)O[C@H]1CCS(=O)(=O)C1    76
COc1ccc(S(=O)(=O)N(CC(C)C)C[C@@H](O)[C@H](Cc2ccccc2)NC(=O)O[C@@H]2CCOCOC2)cc1    5

# evaluate next
Problem: Recall and state the measured IC50 for CC(C)(C)NC(=O)[C@@H]1C[C@@H]2CCCC[C@@H]2CN1C[C@@H](O)[C@H](Cc1ccccc1)NC(=O)O[C@H]1CC[C@H]2OCC[C@@H]12 .
Solution: 17
